molecular target: PRMT5-MEP50 enzyme complex (Homo sapiens (Human), UniProt O14744); assay: PRMT5 enzyme activity in vitro assay (methylation of histone H4R3, ELISA absorbance at 450 nm); conditions: SAM, histone H4 peptide, room temperature 2 hours, 8 points from 10 μM to 0.128 nM
Sequence (O14744 2-637): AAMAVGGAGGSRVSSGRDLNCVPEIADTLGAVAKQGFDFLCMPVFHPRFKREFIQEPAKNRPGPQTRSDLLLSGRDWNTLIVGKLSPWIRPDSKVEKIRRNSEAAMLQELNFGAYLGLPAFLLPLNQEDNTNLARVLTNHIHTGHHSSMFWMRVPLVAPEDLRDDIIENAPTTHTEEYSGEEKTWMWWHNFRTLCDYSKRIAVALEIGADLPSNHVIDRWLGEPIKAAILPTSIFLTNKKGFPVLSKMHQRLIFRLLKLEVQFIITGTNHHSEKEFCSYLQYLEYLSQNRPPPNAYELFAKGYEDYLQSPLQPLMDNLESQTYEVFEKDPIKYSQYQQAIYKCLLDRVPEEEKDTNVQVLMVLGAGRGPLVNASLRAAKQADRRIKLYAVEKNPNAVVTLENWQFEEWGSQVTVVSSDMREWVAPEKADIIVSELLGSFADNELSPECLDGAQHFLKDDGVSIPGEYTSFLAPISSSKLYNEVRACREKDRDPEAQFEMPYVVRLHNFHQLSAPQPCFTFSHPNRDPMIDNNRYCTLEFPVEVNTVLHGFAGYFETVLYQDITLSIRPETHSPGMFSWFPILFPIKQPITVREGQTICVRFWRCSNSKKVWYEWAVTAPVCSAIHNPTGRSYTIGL
Sequence (Q9BQA1 2-342 partner): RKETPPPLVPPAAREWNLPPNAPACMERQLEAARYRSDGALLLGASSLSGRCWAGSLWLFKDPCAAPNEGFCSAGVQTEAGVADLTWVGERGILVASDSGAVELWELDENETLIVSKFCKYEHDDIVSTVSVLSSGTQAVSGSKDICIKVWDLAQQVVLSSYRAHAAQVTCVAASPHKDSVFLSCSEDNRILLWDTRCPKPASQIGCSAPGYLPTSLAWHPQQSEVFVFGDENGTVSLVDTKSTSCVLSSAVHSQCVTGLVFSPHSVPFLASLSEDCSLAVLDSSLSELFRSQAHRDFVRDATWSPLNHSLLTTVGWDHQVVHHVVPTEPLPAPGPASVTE
pIC50: −log10 of the molar value.
What pIC50 was measured for each of the following?

Using PRMT5-MEP50 enzyme complex (Homo sapiens (Human), UniProt O14744) as the test system, report measured pIC50 of O=C1c2ccc(F)cc2OCCN1C[C@H](O)CN1CCc2ccccc2C1 [Example 150] .
6.00 to 7.00

System PRMT5-MEP50 enzyme complex (Homo sapiens (Human), UniProt O14744). Read-out pIC50. Item O=C1c2ccc(OC3CCN(CCF)CC3)cc2OCCN1C[C@H](O)CN1CCc2ccccc2C1 [Example 163] . Report value.
6.00 to 7.00

Write down the reported pIC50 (system: PRMT5-MEP50 enzyme complex (Homo sapiens (Human), UniProt O14744)) of CCN1CC[C@@H](Oc2ccc3c(c2)OCCN(C[C@H](O)CN2CCc4ccccc4C2)C3=O)C1 [Example 99]
6.00 to 7.00

Using PRMT5-MEP50 enzyme complex (Homo sapiens (Human), UniProt O14744) as the test system, report measured pIC50 of CC1(C)CN(C[C@H](O)CN2CCc3ccccc3C2)C(=O)c2ccc(CN3CCN(C=O)CC3)cc2O1 [Example 169] .
6.00 to 7.00

Provide PRMT5-MEP50 enzyme complex (Homo sapiens (Human), UniProt O14744) pIC50 reading for CC1(C)CN(C[C@H](O)CN2CCc3ccccc3C2)C(=O)c2ccc(C(=O)N3C4CCC3COC4)cc2O1 [Example 203] .
6.00 to 7.00

Identify measured pIC50 obtained with PRMT5-MEP50 enzyme complex (Homo sapiens (Human), UniProt O14744) for C[C@@H]1CN(C[C@H](O)CN2CCc3ccccc3C2)C(=O)c2ccc(CN3CCC4(CC3)COC4)cc2O1 [Example 252] .
6.00 to 7.00

Would you please give the reported pIC50 of O=C1c2ccc(OC3CN(C4COC4)C3)cc2OCCN1C[C@H](O)CN1CCc2ccccc2C1 [Example 96] with PRMT5-MEP50 enzyme complex (Homo sapiens (Human), UniProt O14744)?
6.00 to 7.00

State recorded pIC50 with PRMT5-MEP50 enzyme complex (Homo sapiens (Human), UniProt O14744), entry CC(=O)N1CC=C(c2ccc3c(c2)OCCN(C[C@H](O)CN2CCc4ccccc4C2)C3=O)CC1 [Example 16] , no comment.
7.00 to 9.00

---

biological target: PRMT5-MEP50 enzyme complex (Homo sapiens (Human)); assay: PRMT5 enzyme activity in vitro assay (methylation of histone H4R3, ELISA absorbance at 450 nm); conditions: SAM, histone H4 peptide, room temperature 2 hours, 8 points from 10 μM to 0.128 nM
pIC50: −log10 of the molar value.
Would you mind telling me the reported pIC50 of each entry?

Find the measured pIC50 of O=C1c2c(F)cc(CN3CCOCC3)cc2OCCN1C[C@H](O)CN1CCc2ccccc2C1 [Example 108] and report it.
5.00 to 6.00

Note down pIC50 recorded for O=C(c1ccc2c(c1)OCCN(C[C@H](O)CN1CCc3ccccc3C1)C2=O)N1CCC(F)(F)C1 [Example 177]
6.00 to 7.00

Give the reported pIC50 for this compound. COC[C@H]1CCCN1Cc1ccc2c(c1)OCCN(C[C@H](O)CN1CCc3ccccc3C1)C2=O [Example 50]
7.00 to 9.00

Read off the recorded pIC50 for CN1CCN(C[C@H](O)CN2CCc3ccccc3C2)C(=O)c2ccc(CN3CCOCC3)cc21 [Example 115]
7.00 to 9.00

Tell me its pIC50 given O=C1c2ccc(C3CCOCC3)cc2OCCN1C[C@H](O)CN1CCc2ccccc2C1 [Example 21] as the entry.
6.00 to 7.00

Please look at this compound and report its pIC50: COC[C@@H]1CCCN1Cc1ccc2c(c1)OCCN(C[C@H](O)CN1CCc3ccccc3C1)C2=O [Example 49]
6.00 to 7.00

Please give the documented pIC50 of CN1CCC(COc2ccc3c(c2)OCCN(C[C@H](O)CN2CCc4ccccc4C2)C3=O)CC1 [Example 102]
6.00 to 7.00

Supply recorded pIC50 for C[C@@H]1CN(C[C@H](O)CN2CCc3ccccc3C2)C(=O)c2ccc(OC3CCN(C[C@@H](C)O)CC3)cc2O1 [Example 268] here.
6.00 to 7.00

Tell me measured pIC50 for O=C(c1ccc2c(c1)OCCN(C[C@H](O)CN1CCc3ccccc3C1)C2=O)N1CCC(F)CC1 [Example 184] please.
6.00 to 7.00

Supply reported pIC50 belonging to this compound: O=C1c2ccc(OCc3ccnc(F)c3F)cc2OCCN1C[C@H](O)CN1CCc2ccccc2C1 [Example 60]
6.00 to 7.00

Given the compound COC1CN(Cc2ccc3c(c2)OCCN(C[C@H](O)CN2CCc4ccccc4C2)C3=O)C1 [Example 29] , write its reported pIC50.
6.00 to 7.00

Give the value of pIC50 reported for the following: CC(O)CN1CCC(Oc2ccc3c(n2)OC(C)(C)CN(C[C@H](O)CN2CCc4ccccc4C2)C3=O)CC1 (stereo partly shown) [Example 248]
7.00 to 9.00

Respond only with pIC50 recorded for N#CN1CCC(Oc2ccc3c(c2)OCCN(C[C@H](O)CN2CCc4ccccc4C2)C3=O)CC1 [Example 166]
6.00 to 7.00

Entry CCCc1ccc2c(c1)OCCN(C[C@H](O)CN1CCc3ccccc3C1)C2=O [Example 11] needs its pIC50 filled in; supply it.
6.00 to 7.00

Output measured pIC50 for this item: COCCN1CCC(Oc2ccc3c(n2)OC(C)(C)CN(C[C@H](O)CN2CCc4ccccc4C2)C3=O)CC1 [Example 262]
6.00 to 7.00

Look up pIC50 of O=C1c2ccc(Cl)nc2OCCN1C[C@H](O)CN1CCc2ccccc2C1 [Example 153] and report it.
6.00 to 7.00

Give reported pIC50 value for O=C1c2ccccc2OCCN1C[C@H](O)CN1CCc2ccccc2C1 [Example 149]
6.00 to 7.00

Given O=C1c2ccc(C#Cc3cccnc3)cc2OCCN1C[C@H](O)CN1CCc2ccccc2C1 [Example 227] , respond with its pIC50.
7.00 to 9.00

Return pIC50 for the following compound: C[C@H]1CN(C[C@H](O)CN2CCc3ccccc3C2)C(=O)c2ccc(OC3CCN(C)CC3)cc2O1 [Example 146]
6.00 to 7.00

Give recorded pIC50. CC(=O)N1CCC(Oc2ccc3c(c2)OC(C)(C)CN(C[C@H](O)CN2CCc4ccccc4C2)C3=O)CC1 [Example 180]
7.00 to 9.00

Using the record for COCCN1CC[C@@H](Oc2ccc3c(c2)OCCN(C[C@H](O)CN2CCc4ccccc4C2)C3=O)C1 [Example 272] , state its measured pIC50.
6.00 to 7.00

Provide measured pIC50 value, entry: O=C(c1ccc2c(c1)OCCN(C[C@H](O)CN1CCc3ccccc3C1)C2=O)N1CCCC(C(F)(F)F)C1 (stereo partly shown) [Example 185]
6.00 to 7.00

Find the measured pIC50 of CN1CCN(C[C@H](O)CN2CCc3ccccc3C2)C(=O)c2ccc(Br)cc21 [Example 156] and report it.
7.00 to 9.00

Please report pIC50 for the following compound: CCN1C2CCC1CC(Oc1ccc3c(c1)OCCN(C[C@H](O)CN1CCc4ccccc4C1)C3=O)C2 (stereo partly shown) [Example 171]
7.00 to 9.00

Return the recorded pIC50 value; entry: CC1(O)CCN(Cc2ccc3c(c2)OCCN(C[C@H](O)CN2CCc4ccccc4C2)C3=O)C1 (stereo partly shown) [Example 40]
7.00 to 9.00

Give the measured pIC50 for CC1CN(C[C@H](O)CN2CCc3ccccc3C2)C(=O)c2ccc(OC3CCN(C)CC3)cc2O1 (stereo partly shown) [Example 141]
7.00 to 9.00

Give reported pIC50 value for C[C@@H]1CN(C[C@H](O)CN2CCc3ccccc3C2)C(=O)c2ccc(OC3CC4CCC(C3)N4CCF)cc2O1 (stereo partly shown) [Example 242]
7.00 to 9.00

Answer with the recorded pIC50 of CCN1CC(Oc2ccc3c(c2)OCCN(C[C@H](O)CN2CCc4ccccc4C2)C3=O)C1 [Example 94] only.
6.00 to 7.00

Provide measured pIC50 value, entry: O=C1c2ccc(OCc3ccc(F)nc3)cc2OCCN1C[C@H](O)CN1CCc2ccccc2C1 [Example 61]
6.00 to 7.00

Give the reported pIC50 for this compound. N#Cc1ccc2c(c1)CCCN(C[C@H](O)CN1CCc3ccccc3C1)C2=O [Example 9]
6.00 to 7.00

Determine from records and report pIC50 for CN1CCC(Oc2ccc3c(n2)OC(C)(C)CN(C[C@H](O)CN2CCc4ccccc4C2)C3=O)CC1 [Example 145]
6.00 to 7.00
